Cited source for all entries: paper PMC11936226

# target or test system: Sfβgly (GH1 β-glucosidase) (Spodoptera frugiperda, UniProt O61594)
# Construct: purified recombinant Sfβgly
# Sequence (O61594 21-509): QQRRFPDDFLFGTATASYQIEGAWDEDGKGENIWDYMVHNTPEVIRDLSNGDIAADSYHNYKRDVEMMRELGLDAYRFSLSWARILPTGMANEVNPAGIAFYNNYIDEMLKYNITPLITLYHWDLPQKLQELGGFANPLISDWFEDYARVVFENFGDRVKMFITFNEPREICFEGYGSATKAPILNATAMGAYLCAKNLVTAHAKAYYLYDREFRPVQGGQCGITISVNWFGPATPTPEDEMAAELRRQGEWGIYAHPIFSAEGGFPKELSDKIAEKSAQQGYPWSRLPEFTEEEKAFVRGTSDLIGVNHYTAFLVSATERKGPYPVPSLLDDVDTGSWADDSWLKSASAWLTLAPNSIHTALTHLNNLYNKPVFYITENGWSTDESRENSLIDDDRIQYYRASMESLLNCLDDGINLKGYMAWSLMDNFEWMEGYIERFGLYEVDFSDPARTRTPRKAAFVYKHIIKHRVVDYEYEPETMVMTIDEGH
# measurement notes: steady-state inhibition kinetics (Lineweaver-Burk) with NPβglc as substrate; also with cellobiose (Ki […])
assay metric: pKi
Formally, pKi is defined as -log10 of the concentration c, with c in mol/L.

Enquiry: Report measured pKi; entry is NC(CO)(CO)CO
Return: 1.92
